Test: qHTS assay for small molecule agonists of the antioxidant response element (ARE) signaling pathway - cell viability counter screen (AID 743203); also: nearly all actives have a fitted effect of over 55% in size
Conditions: ARE-bla HepG2 viability, CellTiter-Glo luminescence, 16 h; series mostly up to 73.3 µM
Description: National Center for Advancing Translational Sciences [NCATS] NIH Chemical Genomics Center [NCGC] U.S. Environmental Protection Agency [EPA] National Institutes of Environmental Health Sciences [NIEHS] National Toxicology Program [NTP] U.S. Food and Drug Administration [FDA] Oxidative stress has been implicated in the pathogenesis of a variety of diseases ranging from cancer to neurodegeneration. […] The activation of the report gene under culture conditions can be detected by fluorescence intensity. […]
Inconclusive results are not listed. Activity calls are given as the source filed them. Calls follow the shape of the full dose curve.
# valid calls are T for active, F for inactive; nothing else

Answered examples (5):
CCCCCCC(C)(C)S ... F
O=[N+]([O-])C(CO)(CO)CO ... F
O=[N+]([O-])c1cc(N(CCO)CCO)ccc1NCCO ... F
C[C@@H](O)[C@H]1C(=O)N2C(C(=O)O)=C(S[C@@H]3CN[C@H](C(=O)N(C)C)C3)[C@H](C)[C@H]12 ... F
CC(=O)Nc1ccc(C(=O)O)cc1 ... F

Recorded call for Cc1cc(O)c2c(c1)C(=O)c1cc(O)cc(O)c1C2=O ?
T

Recorded call for O=C(Oc1ccccc1)c1ccc(O)cc1 ?
F

Recorded call for CN(CCOc1ccc(CC2SC(=O)NC2=O)cc1)c1ccccn1 (centres undefined) ?
F

Recorded call for OCC1CCCO1 (centres undefined) ?
F

Recorded call for C=C(C)C(=O)OCCCCCCCCCCCC ?
F

Recorded call for CCC(=O)O ?
F

====

Assay: qHTS assay to identify small molecule antagonists of the estrogen receptor alpha (ER-alpha) signaling pathway - cell viability counter screen (AID 743074);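 also: HEK293 cells carrying ER-alpha-UAS-bla reporter stimulated with 17beta-estradiol; nearly all actives have a fitted effect of over 45% in size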
Settings: ERalpha-bla HEK293 viability, CellTiter-Glo luminescence, 18 h; series mostly up to 69.4 µM
Inconclusive results are not listed. Activity calls are given as the source filed them. The call rests on the fitted dose curve.
# valid calls are active, inactive; nothing else

Answered examples (6):
C=C1C2CCC(C2)C1(C)C (centres undefined) ... inactive
CC1(C)CC(N=C=O)CC(C)(CN=C=O)C1 (centres undefined) ... inactive
O=C(O)c1ccc([N+](=O)[O-])cc1 ... inactive
C[C@@H](O)[C@H]1C(=O)N2C(C(=O)O)=C(S[C@@H]3CN[C@H](C(=O)N(C)C)C3)[C@H](C)[C@H]12 ... inactive
CCCCCCCCC ... inactive
CCCCCC/C=C/CCCCCCCC(=O)O ... inactive

Recorded call for CC(C)(C)C(=O)C1C(=O)c2ccccc2C1=O ?
inactive

Recorded call for CC(C)NCC(O)COc1cccc2ccccc12 (centres undefined) ?
inactive

Recorded call for Oc1c(Cl)cc(Cl)c(Cl)c1Cl ?
active

Recorded call for COC(=O)c1ccc(C(=O)OC)cc1 ?
inactive

Recorded call for CCCCC/C=C\C/C=C\CCCCCCCC(=O)OC ?
inactive

Recorded call for Oc1ccc2ccccc2c1 ?
inactive

Recorded call for C=C(C#N)C(=O)OCC ?
inactive

Recorded call for CCCCCCC(C)(C)S ?
inactive

====

Assay: qHTS assay to identify small molecule antagonists of the progesterone receptor (PR) signaling pathway - cell viability counter screen (AID 1346798);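 also: HEK293T PR-UAS-bla cells stimulated with the agonist R5020; nearly all actives have a fitted effect of over 50% in size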
Conditions: PR-UAS-bla HEK293T viability, CellTiter-Glo luminescence, 16 h; series mostly up to 92.4 µM
Records with an inconclusive call do not appear. The source made the active and inactive calls. Calls come from the whole dose curve; as a rule, active = well fitted cell-killing curve with a large enough effect in the repeat runs; inconclusive = weak or mixed curves, or effect the other way; inactive = no such curve, though single readings can be large or run the other way.
property-name: outcome

Use the examples below as a reference point.
CC(C)(CO)COC(=O)C(C)(C)CO ... inactive
CCCCCC/C=C/CCCCCCCC(=O)O ... inactive
c1ccc2ccccc2c1 ... inactive
C=C(C)C(=O)OCCCCCCCCCCCC ... inactive
NCc1cccc(CN)c1 ... inactive

Which outcome is reported for this compound? O=Nc1ccc(O)cc1
inactive

Which outcome is reported for this compound? CCCCC(CC)COC(=O)/C=C\C(=O)OCC(CC)CCCC (stereo not drawn)
inactive

Which outcome is reported for this compound? Oc1ccc2ccccc2c1N=Nc1ccccc1
inactive

Which outcome is reported for this compound? C[C@@H]1O[C@@H](OC[C@H]2O[C@@H](Oc3c(-c4ccc(O)c(O)c4)oc4cc(O)cc(O)c4c3=O)[C@H](O)[C@@H](O)[C@@H]2O)[C@H](O)[C@H](O)[C@H]1O
inactive

Which outcome is reported for this compound? CC1CC(OC(=O)c2ccccc2O)CC(C)(C)C1 (stereo not drawn)
inactive

Which outcome is reported for this compound? CC(C)(N=C=O)c1cccc(C(C)(C)N=C=O)c1
inactive

Which outcome is reported for this compound? CCCCCCCCC
inactive

Which outcome is reported for this compound? CCc1ccc(O)cc1
inactive

====

Test: A CellTox Green Cytotoxicity Assay to monitor cytotoxicity in HepG2 cells - 32 hour (AID 1224883); also: nearly all actives have a fitted effect of over 50% in size
Details: CellTox Green fluorescence; series mostly up to 76.8 µM
From the text: National Center for Advancing Translational Sciences [NCATS] NIH Chemical Genomics Center [NCGC] U.S. Environmental Protection Agency [EPA] National Institutes of Environmental Health Sciences [NIEHS] National Toxicology Program [NTP] Cell-based models are critical for drug discovery. […] Viable cells produce no appreciable increases in fluorescence. Therefore, the fluorescence signal produced by the binding interaction with dead cell DNA is proportional to cytotoxicity. […]
Inconclusive results are not listed. Activity calls are given as the source filed them. The call rests on the fitted dose curve; in most records, active means well fitted activation curve with a large enough effect in the repeat runs; inconclusive means weak or mixed curves; inactive means flat fitted curve, though single readings scatter.
property-name: outcome

Cc1cc(O)c2c(c1)C(=O)c1cc(O)cc(O)c1C2=O ... inactive
C=C(C)C(=O)OCCCCCCCCCCCC ... inactive
O=C(Cl)c1c(Cl)c(Cl)c(C(=O)Cl)c(Cl)c1Cl ... inactive

====

Assay: qHTS assay for small molecule agonists of the antioxidant response element (ARE) signaling pathway (AID 743202)
Conditions: HepG2 ARE-bla reporter, beta-lactamase FRET, 16 h; series mostly up to 73.3 µM
Results filed as inconclusive are left out. Activity calls are given as the source filed them. The call rests on the fitted dose curve; in most records, active means well fitted activation curve with a large enough effect in the signal ratio in the repeat runs (not every such curve was filed as active); inconclusive means weak or mixed curves, or effect the other way; inactive means no such curve, though single readings can be large or run the other way; the % refers to the signal ratio.
property-name: outcome

Use the examples below as a reference point.
NS(=O)(=O)c1cc2c(cc1Cl)NC=NS2(=O)=O ... inactive
CCOC(=O)C1OC1c1ccccc1 (stereo unspecified) ... inactive
CC(C)(N=C=O)c1cccc(C(C)(C)N=C=O)c1 ... inactive
NC(=O)NNc1ccccc1 ... inactive
CCC(C)C=O (stereo unspecified) ... inactive

Which outcome is reported for this compound? CCCCCCCCCCCCN
inactive

Which outcome is reported for this compound? CC1CC(OC(=O)c2ccccc2O)CC(C)(C)C1 (stereo unspecified)
inactive

Which outcome is reported for this compound? CCC(=O)O
inactive

Which outcome is reported for this compound? O=C(O)c1ccc([N+](=O)[O-])cc1
inactive

Which outcome is reported for this compound? O=C1CCCCC1
inactive

Which outcome is reported for this compound? CC(=O)Nc1ccc(C(=O)O)cc1
inactive

====

Experiment: qHTS assay to identify small molecule agonists of the estrogen receptor alpha (ER-alpha) signaling pathway in the presence of an antagonist - cell viability counter screen (AID 1259386);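 also: cells exposed to compounds for 22 h at 37 °C before the viability read; nearly all actives have a fitted effect of over 30% in size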
Conditions: VM7Luc4E2 viability, CellTiter-Fluor fluorescence, 22 h; series mostly up to 92.4 µM
Inconclusive results are not listed. Calls of active or inactive are those of the source. Calls come from the whole dose curve; as a rule, active = well fitted cell-killing curve with a large enough effect in the repeat runs; inconclusive = weak or mixed curves, or effect the other way; inactive = no such curve, though single readings can be large or run the other way.
# valid calls are true = active, false = inactive; nothing else

CCCCCCCCCCCCN ... false
O=C(c1ccc(O)cc1)c1ccc(O)cc1O ... false
CCCCC(CC)COC(C)=O (stereo not given) ... false
Cc1cc(NS(=O)(=O)c2ccc(N)cc2)no1 ... false
CCOC(=O)[C@H](CCc1ccccc1)N[C@@H](C)C(=O)N1Cc2ccccc2C[C@H]1C(=O)O ... false

Recorded call for O=S(=O)(O)CCS ?
false

Recorded call for Cn1c([N+](=O)[O-])cnc1COC(N)=O ?
false

====

Experiment: qHTS assay to identify small molecule antagonists of the peroxisome proliferator-activated receptor delta (PPARd) signaling pathway - cell viability counter screen (AID 743213); also: nearly all actives have a fitted effect of over 50% in size
Settings: PPARd-bla HEK293H viability, CellTiter-Glo luminescence, 17 h; series mostly up to 62 µM
Inconclusive results are not listed. Active and inactive are the calls of the source. The call rests on the fitted dose curve; in most records, active means well fitted cell-killing curve with a large enough effect in the repeat runs; inconclusive means weak or mixed curves; inactive means no such curve, though single readings can be large or run the other way.
property-name: outcome

Cc1cc(NS(=O)(=O)c2ccc(N)cc2)no1 ... inactive
O=Nc1ccc(O)cc1 ... inactive
CC(C)(C)C1CCC(O)CC1 (stereo not given) ... inactive
Clc1ccc(Cl)c(Cl)c1Cl ... inactive

Next, consider the following compound.
Which outcome is reported for this compound? CC(=O)CCc1ccccc1
inactive

====

Assay: qHTS assay to test for compound auto fluorescence at 460 nm (blue) in HEK293 cells (AID 720678)
Conditions: blue autofluorescence 405/460 nm; series mostly up to 91.3 µM
Activity calls are given as the source filed them. Calls come from the whole dose curve; as a rule, active = well fitted curve in the direction sought with a large enough effect in the repeat runs; inconclusive = weak or mixed curves; inactive = flat fitted curve, though single readings scatter.
# valid calls are active, inactive; nothing else

Answered examples (4):
CC1Cc2ccccc2N1NC(=O)c1ccc(Cl)c(S(N)(=O)=O)c1 (stereo not drawn) ... inactive
CCOC(=O)[C@H](CCc1ccccc1)N[C@@H](C)C(=O)N1Cc2ccccc2C[C@H]1C(=O)O ... inactive
O=[N+]([O-])C(CO)(CO)CO ... inactive
CCCCCCOC(C)=O ... inactive

Recorded call for CC1(C)O[C@@H]2C[C@H]3[C@@H]4C[C@H](F)C5=CC(=O)CC[C@]5(C)[C@H]4[C@@H](O)C[C@]3(C)[C@]2(C(=O)CO)O1 ?
inactive

Recorded call for CCCCOCCO ?
inactive

Recorded call for Oc1ccc2ccccc2c1N=Nc1ccccc1 ?
inactive

Recorded call for Cc1cc(=O)[nH]c(C(C)C)n1 ?
inactive
